The reported measurements were obtained from ChEMBL document CHEMBL1201862.

test system: 786-0; assay: NCI tumour cell line growth inhibition, 48 h
Calls of active or inactive are those of the source. Rule as the data show it: active = GI50 up to about 1.1 µM and inactive = higher.
Each entry below lists one item and its recorded GI50 value.

Compound: CSc1ncc2c(n1)-c1ccccc1OC2NC1CC1 (configuration not stated)
GI50: > 100 µM (inactive)
//
Compound: CC1CC(=O)c2c(ccc3c2C(=O)c2cccc(O)c2C3=O)C1 (configuration not stated)
GI50: 7 µM (inactive)
//
Compound: C=C[C@@H]1OC(=O)O[C@H]1CO
GI50: > 100 µM (inactive)

Entry under test: Cc1nn(-c2ccccc2)c2c1C(c1ccc(Cl)cc1)NC(=S)N2 (configuration not stated) . Its GI50 was 15.6 µM (inactive)

Entry under test: COc1ccc(/C=C/C(=O)/C=C/c2ccc(OC)cc2)cc1 . Its GI50 was 46.5 µM (inactive)

Entry under test: O=C(Nc1ccc(F)cc1)C(=O)C(C1OC(=O)c2ccccc21)[N+](=O)[O-] (configuration not stated) . Its GI50 was > 100 µM (inactive)

Entry under test: O=C(O)c1cc(=O)c2[nH]c3ccccc3c2s1 . Its GI50 was > 100 µM (inactive)

Entry under test: COc1ccc2cccc(C(=N)c3ccc(C)c4c3CCC4)c2c1 . Its GI50 was 10.2 µM (inactive)

====

test system: SNB-75; test: NCI tumour cell line growth inhibition, 48 h
Calls of active or inactive are those of the source. No stated cut-off is given here; in the data, active = GI50 up to about 1.1 µM and inactive = higher. Starred links: 1 amine or outer side, 2 acyl side, 3 side chain; linkers in the order of their positions; H or OH if unused. Positions of bridges follow the written chain, without caps; N, C: chain ends. Non-standard residues stand in square brackets, D forms with d. Residues, ends and D or L forms follow the SMILES beside them. ξ: configuration not given here. X37 = CC[C@H](C)[C@@H](N[*:1])[C@@H](O)CC(=O)O[C@H](C(=O)[C@H](C)C(=O)[*:2])C(C)C; NMeY = CN[C@@H](Cc1ccc(O)cc1)C(=O)O; dNMeL = CN[C@H](CC(C)C)C(=O)O; ξΔPro = O=C(O)C1C=CCN1
Pick one and only one: T = active, F = inactive

Compound: O=C1/C(=C/c2ccc(C(=O)O)cc2)CNC/C1=C\c1ccc(C(=O)O)cc1
Label Class: F
//
Compound: CCN(CC)CCCC(C)Nc1ccnc2cc3ccccc3cc12 (stereo unspecified)
Label Class: F
//
Compound: [N-]=[N+]=Nc1c([N+](=O)[O-])c(=O)n2c3c(cccc13)CCC2
Label Class: F

Asked: Hey, what did the test say about Cc1ccc(NCC(=O)N2CC(=O)Nc3ccccc32)cc1 ?
Given back: F

Asked: Hey, what did the test say about CCOC(=O)CC[C@H](N)C(=O)N[C@H](Cc1ccc(N(CCCl)CCCl)cc1)C(=O)OCC ?
Given back: T

Asked: Hey, what did the test say about C[Si](C)(C)/C=C/CCC(C=O)(CCCl)c1ccccc1 (stereo unspecified) ?
Given back: F

Asked: Hey, what did the test say about O=C1c2ccccc2C2(O)Nc3cc(O)ccc3C12O (stereo unspecified) ?
Given back: F

Asked: Hey, what did the test say about O=C1C(Cl)C(c2cccc(O)c2)N1n1cnc2ccccc2c1=O (stereo unspecified) ?
Given back: F

Asked: Hey, what did the test say about CC[C@H](C)[C@H]1NC(=O)[C@@H](NC(=O)[C@@H](CC(C)C)N(C)C(=O)C2C=CCN2)[C@@H](C)OC(=O)[C@H](Cc2ccc(OC)cc2)N(C)C(=O)[C@@H]2CCCN2C(=O)[C@H](CC(C)C)NC(=O)[C@@H](C)C(=O)[C@H](C(C)C)OC(=O)C[C@@H]1O (stereo partly specified) (H-[ξΔPro][dNMeL]T[X37]LP[NMeY](Me); ester 3-C) ?
Given back: T

Asked: Hey, what did the test say about O=C1c2ccccc2C(=O)c2c(O)c(NCCNCCO)cc(O)c21 ?
Given back: F

Asked: Hey, what did the test say about CN(C)N1C(=O)SCC(c2ccccc2)(c2ccccc2)C1=O ?
Given back: F

Asked: Hey, what did the test say about CCN(C(C)=O)c1cnc(/C=N/NC(N)=S)c2ccccc12 ?
Given back: F
